glass transition temperature overview
Quick reminder: number only, in °C, skip the unit.

Recorded glass transition temperature, per entry:
molecule	glass transition temperature [°C]
*c1ccc2c(c1)C(=O)N(c1ccc(-c3ccc(N4C(=O)c5ccc(C(*)(C(F)(F)F)C(F)(F)F)cc5C4=O)cc3-c3cccc(C(F)(F)F)c3)c(-c3cccc(C(F)(F)F)c3)c1)C2=O (repeat unit)	278.00
*C(=O)c1ccc2c(c1)C(=O)N(c1c(CC)cc(Cc3cc(CC)c(N4C(=O)c5ccc(*)cc5C4=O)c(CC)c3Cl)c(Cl)c1CC)C2=O (repeat unit)	300.00
*C(=O)c1ccc2c(c1)C(=O)N(c1ccc(Cc3ccccc3N3C(=O)c4ccc(*)cc4C3=O)cc1)C2=O (repeat unit)	290.00
*C(=O)c1ccc2c(c1)C(=O)N(c1ccc(S(=O)(=O)c3ccc(N4C(=O)c5ccc(*)cc5C4=O)cc3)cc1)C2=O (repeat unit)	307.00
*Oc1ccc(Oc2ccc(Oc3cccc4c3C(=O)N(CCCCCCCCN3C(=O)c5cccc(*)c5C3=O)C4=O)cc2)cc1 (repeat unit)	128.00
*Oc1cccc(C(=O)c2ccc(Oc3ccc4c(c3)C(=O)N(c3ccc(Oc5ccc(N6C(=O)c7ccc(*)cc7C6=O)cc5)cc3)C4=O)cc2)c1 (repeat unit)	210.00
*Oc1cccc(S(=O)(=O)c2ccc(Oc3cccc4c3C(=O)N(c3cccc(N5C(=O)c6cccc(*)c6C5=O)c3)C4=O)cc2)c1 (repeat unit)	266.00
*c1ccc2c(c1)C(=O)N(c1ccc(N3C(=O)c4ccc(C(*)(C(F)(F)F)C(F)(F)F)cc4C3=O)cc1C(F)(F)F)C2=O (repeat unit)	366.00
*C(=O)c1ccc2c(c1)C(=O)N(c1cccc(C(=O)c3cccc(N4C(=O)c5ccc(*)cc5C4=O)c3)c1)C2=O (repeat unit) [Polyimide]	220
*c1ccc(Cc2ccc(-n3c(=O)c4cc5c(=O)n(*)c(=O)c5cc4c3=O)c(C)c2)cc1C (repeat unit)	274.00

Using the record for *Oc1c(F)c(F)c(Oc2c(F)c(F)c3c(c2F)C(=O)N(c2c(F)c(F)c(Sc4c(F)c(F)c(N5C(=O)c6c(F)c(*)c(F)c(F)c6C5=O)c(F)c4F)c(F)c2F)C3=O)c(F)c1F (repeat unit) , report its glass transition temperature.
278.00

Using the record for *Oc1cccc2c1C(=O)N(c1cccc(Oc3ccc(C(=O)c4ccc(Oc5cccc(N6C(=O)c7cccc(*)c7C6=O)c5)cc4)cc3)c1)C2=O (repeat unit) , report its glass transition temperature.
198.00

Using the record for *Oc1cccc(Sc2ccc(Oc3cccc4c3C(=O)N(c3ccc(Oc5ccc(N6C(=O)c7cccc(*)c7C6=O)cc5)cc3)C4=O)cc2)c1 (repeat unit) , report its glass transition temperature.
234.00

Using the record for *c1ccc(Oc2ccccc2N2C(=O)c3cc4c(cc3C2=O)C(=O)N(*)C4)cc1 (repeat unit) , report its glass transition temperature.
386.00

Using the record for *C(=O)c1ccc2c(c1)C(=O)N(c1cccc(Oc3ccccc3N3C(=O)c4ccc(*)cc4C3=O)c1)C2=O (repeat unit) , report its glass transition temperature.
259.00

Using the record for *c1ccc2c(c1)C(=O)N(c1ccc(N3C(=O)c4ccc(C(*)(C(F)(F)F)C(F)(F)F)cc4C3=O)cc1F)C2=O (repeat unit) , report its glass transition temperature.
370.00

Using the record for *c1ccc(P(=O)(c2ccccc2)c2ccc(N3C(=O)c4ccc(-c5ccc6c(c5)C(=O)N(*)C6=O)cc4C3=O)cc2)cc1 (repeat unit) , report its glass transition temperature.
371.00

Using the record for *c1ccc(C(=O)c2ccccc2-n2c(=O)c3cc4c(=O)n(*)c(=O)c4cc3c2=O)cc1 (repeat unit) , report its glass transition temperature.
321.00

----------
glass transition temperature overview
Quick reminder: number only, in °C, skip the unit.

Recorded glass transition temperature, per entry:
>>> df
                                   molecule                        metric   value
0  *Oc1ccc(CC(NC(=O)CCc2ccc(OC(=O)CCCCC(*)=O)cc2)C(=O)OCCCCCCCC)cc1 (repeat unit)  glass transition temperature   28.00
1  *Oc1ccc(S(=O)(=O)c2ccc(Oc3cccc(NC(=O)c4ccc(-c5ccc(C(=O)Nc6cccc(*)c6)c(C)c5)cc4C)c3)cc2)cc1 (repeat unit)  glass transition temperature  220.00
2  *Oc1ccc(Oc2ccc(C(=O)Nc3ccc(Oc4ccc(-c5ccc(Oc6ccc(NC(=O)c7ccc(*)cc7)cc6)cc5)cc4)cc3)cc2)cc1-c1ccccc1 (repeat unit)  glass transition temperature  232.00
3  *Oc1cccc(NC(=O)c2ccc(Oc3ccc(C(C)(C)c4cccc(C(C)(C)c5ccc(Oc6ccc(C(=O)Nc7ccc(*)cc7)cc6)cc5)c4)cc3)cc2)c1 (repeat unit)  glass transition temperature  147.00
4  *c1ccc(Oc2ccc(C3(c4ccc(Oc5ccc(-c6cccc(*)n6)cc5C(F)(F)F)cc4)c4ccccc4-c4ccccc43)cc2)c(C(F)(F)F)c1 (repeat unit)  glass transition temperature  182.50

Continue with the next molecule.
Using the record for *O[Si](C)(C)O[Si](C)(C)OC(C)CCC(*)C (repeat unit) , report its glass transition temperature.
-83.00

----------
Lab note: anything with glass transition temperature at or over 20 °C counts as criterion met; the rest go in criterion not met.

>>> df
                                   molecule     classification
0          *CC(*)c1ccccc1COCC (repeat unit)      criterion met
1          *CCC(F)(F)C(*)(F)F (repeat unit)  criterion not met
2  *Oc1ccc(C(C)(C)c2ccc(OC(*)=O)cc2)cc1 (repeat unit) [Poly(bisphenol A carbonate)]      criterion met

Decide: glass transition temperature of *CCC1CC(OC(=O)CCCCCCCCCCOc2ccc(-c3ccc(C#N)cc3)cc2)CC1* (repeat unit) >= 20 °C?
criterion met

Decide: glass transition temperature of *Oc1ccc(CC(NC(=O)Cc2ccc(OC(=O)CCCCC(*)=O)cc2)C(=O)OCC)cc1 (repeat unit) >= 20 °C?
criterion met

----------
Lab note: anything with glass transition temperature at or over 200 °C counts as label 1; the rest go in label 0.

compound	classification
*CC(*)(C)C(=O)OCc1ccc(Cl)cc1 (repeat unit)	label 0
*c1ccc(CC(=O)Nc2ccc(NC(=O)Cc3ccc(-c4sc(*)c(-c5ccccc5)c4-c4ccccc4)cc3)cc2)cc1 (repeat unit)	label 1
*CCCCCCCCCCCOC(=O)Nc1ccc(NC(=O)OCCCCCCCCCCCOc2ccc(-c3ccc(O*)cc3)cc2)c(C)c1 (repeat unit)	label 0
*CC(*)(C)C(=O)OCCC#N (repeat unit)	label 0

Decide: glass transition temperature of *C#C/C(COS(=O)(=O)c1ccc(C)cc1)=C(/*)COS(=O)(=O)c1ccc(C)cc1 (repeat unit) >= 200 °C?
label 0

Decide: glass transition temperature of *CC(*)OC(=O)c1cccc([N+](=O)[O-])c1 (repeat unit) >= 200 °C?
label 0

Decide: glass transition temperature of *CC(*)C[Si](C)(C)C (repeat unit) >= 200 °C?
label 0

Decide: glass transition temperature of *C(=O)Nc1cccc(NC(=O)c2ccc3[nH]c(-c4cc(-c5nc6cc(*)ccc6[nH]5)cc(N5C(=O)c6ccccc6C5=O)c4)nc3c2)c1 (repeat unit) >= 200 °C?
label 1

Decide: glass transition temperature of *CCCCCOC(=O)NCC(F)(F)C(F)(F)C(F)(F)C(F)(F)CNC(=O)O* (repeat unit) >= 200 °C?
label 0

Decide: glass transition temperature of *c1cccc(C(=O)Nc2ccc(Oc3ccc(Oc4ccc(NC(=O)c5cccc(N6C(=O)c7ccc(-c8ccc9c(c8)C(=O)N(*)C9=O)cc7C6=O)c5)cc4)cc3)cc2)c1 (repeat unit) >= 200 °C?
label 1

Decide: glass transition temperature of *C(=O)Oc1ccc(C23CC4CC(CC(C4)C2)C3)c(OC(=O)c2ccc3c(c2)C(=O)N(c2ccc(-c4ccc(N5C(=O)c6ccc(*)cc6C5=O)cc4C)c(C)c2)C3=O)c1 (repeat unit) >= 200 °C?
label 1

Decide: glass transition temperature of *Oc1ccc2ccc(Oc3ccc(C(=O)Nc4ccc(Oc5ccc(C(C)(c6ccccc6)c6ccc(Oc7ccc(NC(=O)c8ccc(*)cc8)cc7)cc6)cc5)cc4)cc3)cc2c1 (repeat unit) >= 200 °C?
label 0

Decide: glass transition temperature of *Oc1ccc(C(=O)NCC(C)(C)CCCNC(=O)c2ccc(*)cc2)cc1 (repeat unit) >= 200 °C?
label 0

Decide: glass transition temperature of *c1ccc(C(c2ccc(N3C(=O)c4cc5c(cc4C3=O)C(C(F)(F)F)(C(F)(F)F)c3cc4c(cc3O5)C(=O)N(*)C4=O)cc2)(C(F)(F)F)C(F)(F)F)cc1 (repeat unit) >= 200 °C?
label 1

----------
Criterion: glass transition temperature strictly less than 100 °C. Met: true (1). Not met: false (0).

                     molecule  classification
0  *OC(*)CCCCCC (repeat unit)        true (1)

A record lists */C=C/c1cc(OCCCCCCCC)c(*)cc1OC (repeat unit) . Is its glass transition temperature below 100 °C?
true (1)

A record lists *CCCC1(CCCNC(=O)CCCCCCCCC(=O)N*)c2ccccc2-c2ccccc21 (repeat unit) . Is its glass transition temperature below 100 °C?
true (1)

A record lists *OP(=O)(Oc1ccc(C)cc1)Oc1c(C)cc(S(=O)(=O)c2cc(C)c(*)c(C)c2)cc1C (repeat unit) . Is its glass transition temperature below 100 °C?
false (0)

A record lists *CC(*)C(=O)OCc1c(Br)c(Br)c(Br)c(Br)c1Br (repeat unit) . Is its glass transition temperature below 100 °C?
false (0)
